target: AMPK; assay: AMPK activation, enzyme-linked immunosorbent assay
// reported EC50 for each item listed

Take a look at these entries with their results.
N#Cc1ccc(CN2CC[C@@H](NC(=O)c3ccc(C(=O)N4CCC(Oc5ccc(S(=O)(=O)C(F)(F)F)cc5)CC4)nc3)C(F)C2)cc1 (stereo in doubt) [Compound 451]: < 500 nM
O=C(N[C@H]1CC[C@@H](Oc2ccc(F)cc2)CC1)c1ccc(C(=O)N2CCC(C(=O)c3ccc(F)cc3)CC2)cn1 [Compound 304]: < 500 nM

# input for lookup
State the recorded EC50 for this entry: CC(=O)c1ccc(OC2CCN(C(=O)c3ccc(C(=O)NC4CCC(Oc5ccc(C#N)cc5)CC4)cn3)CC2)cc1 (stereo not drawn) [Compound 402]
< 500 nM

----------
// reported EC50 for each item listed
target: AMPK; assay: AMPK activation, enzyme-linked immunosorbent assay

Take a look at these entries with their results.
N#Cc1ccc(CN2CCC(NC(=O)c3ccc(Nc4ccc(Cc5ccccc5)cc4)cn3)CC2)cc1: 0.5 to 1 µM
COc1ccc(C(=O)C2CCN(C(=O)c3ccc(C(=O)N[C@@H]4CCN(Cc5ccc(OC(C)C)cc5)C[C@H]4F)cn3)CC2)cc1 (relative stereo): < 0.5 µM

Given the entry N#Cc1ccc(O[C@H]2CC[C@@H](NC(=O)c3ccc(C(=O)N4CCN(Cc5ccc(F)cc5)CC4)nc3)CC2)cc1 , what EC50 was observed with AMPK?
< 0.5 µM

Given the entry COc1ccc(C(=O)C2CCN(C(=O)c3ccc(C(=O)N[C@H]4CC[C@@H](Oc5cc(F)cc(F)c5)CC4)nc3)CC2)cc1 , what EC50 was observed with AMPK?
< 0.5 µM

Given the entry COc1ccc(C(=O)C2CCN(C(=O)c3ccc(C(=O)N[C@H]4CC[C@@H](Oc5ccc(F)cc5)CC4)nc3)CC2)cc1 , what EC50 was observed with AMPK?
< 0.5 µM

Given the entry N#Cc1ccc(OC2CCN(C(=O)c3ccc(C(=O)N[C@H]4CC[C@@H](Oc5ccc(C#N)cc5)CC4)cn3)CC2)cc1 , what EC50 was observed with AMPK?
< 0.5 µM

----------
// reported pEC50 for each item listed
molecular target: AMPK; experiment: AMPK activation, enzyme-linked immunosorbent assay
pEC50: −log10 of the molar value.

Take a look at these entries with their results.
O=C(N[C@H]1CC[C@@H](Oc2ccc(F)cc2)CC1)c1ccc(C(=O)N2CCC(Oc3ccc(F)cc3)CC2)cn1 [Compound 312]: > 6.30
N#Cc1ccc(O[C@H]2CC[C@@H](NC(=O)c3ccc(C(=O)N4CCC(Oc5ccc(C(F)(F)F)cc5)CC4)cn3)CC2)cc1F [Compound 199]: > 6.30

# input for lookup
State the recorded pEC50 for this entry: N#Cc1ccc(CN2CCc3ccc(NC(=O)c4ccc(C(=O)N5CCN(Cc6ccc(F)cc6)CC5)cn4)cc3C2)cc1 [Compound 132]
> 6.30

----------
// reported pEC50 for each item listed
molecular target: AMPK; experiment: AMPK activation, enzyme-linked immunosorbent assay
pEC50: −log10 of the molar value.

State the recorded pEC50 for this entry: N#Cc1ccc(CN2CCC(NC(=O)c3ccc(C(=O)N4CCC(Oc5ccc(C#N)cc5)CC4)nn3)CC2)cc1
> 6.30

----------
// reported EC50 for each item listed
molecular target: AMPK; experiment: AMPK activation, enzyme-linked immunosorbent assay

COc1ccc(C(=O)C2CCN(C(=O)c3ccc(C(=O)N[C@@H]4CCN(Cc5cc(C)on5)C[C@@H]4F)cn3)CC2)cc1: < 500 nM

State the recorded EC50 for this entry: N#Cc1ccc(O[C@H]2CC[C@@H](NC(=O)c3ccc(C(=O)N4CCC(Oc5cccc(NC(=O)C6CC6)c5)CC4)nc3)CC2)cc1
< 500 nM

State the recorded EC50 for this entry: COc1ccc(C(=O)C2CCN(C(=O)c3ccc(C(=O)N[C@@H]4CCN(Cc5ccc(OC(F)(F)F)cc5)C[C@H]4F)cn3)CC2)cc1 (relative stereo)
< 500 nM

State the recorded EC50 for this entry: COc1ccc(C(=O)C2CCN(C(=O)c3ccc(C(=O)N[C@@H]4CCN(Cc5csc(C)n5)C[C@@H]4F)cn3)CC2)cc1
1000 to 5000 nM

State the recorded EC50 for this entry: COc1ccc(C(=O)C2CCN(C(=O)c3ccc(C(=O)N[C@H]4CC[C@@H](Oc5ccc(F)cc5)CC4)cn3)CC2)cc1
< 500 nM

State the recorded EC50 for this entry: N#Cc1ccc(OC2CCN(C(=O)c3ccc(C(=O)N[C@H]4CC[C@@H](Oc5ccc(F)cc5)CC4)cn3)CC2)cc1
< 500 nM
